This collection of values is drawn from paper PMC7468467.

target: UniProt:A0AB38FXT7
Sequence (A0AB38FXT7 entry or part of it): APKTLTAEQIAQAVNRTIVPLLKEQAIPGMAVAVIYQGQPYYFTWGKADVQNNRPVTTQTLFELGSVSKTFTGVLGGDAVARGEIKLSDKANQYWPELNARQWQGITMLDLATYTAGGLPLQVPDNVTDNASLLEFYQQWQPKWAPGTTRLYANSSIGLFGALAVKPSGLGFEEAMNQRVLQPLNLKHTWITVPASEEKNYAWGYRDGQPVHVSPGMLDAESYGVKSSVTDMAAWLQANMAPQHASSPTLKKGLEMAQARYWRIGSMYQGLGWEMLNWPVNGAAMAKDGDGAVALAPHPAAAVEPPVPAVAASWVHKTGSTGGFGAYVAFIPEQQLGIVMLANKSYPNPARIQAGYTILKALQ
assay_metric: pIC50
Here pIC50 is given on a logarithmic scale as minus log10 of the concentration in mol/L.

Study these solved cases before continuing.
> print(dat)
                        structure.as.smiles  assay.metric  reported
1    O=C(O)[C@H]1/C(=C/CO)O[C@@H]2CC(=O)N21         pIC50      4.24
2  NC(=O)[C@@H]1CC[C@@H]2CN1C(=O)N2OS(=O)(=O)O         pIC50      8.93

// moving on: another record for pIC50
Fill in: pIC50 of Nc1nc2c(ncn2[C@@H]2O[C@H](COP(=O)(O)O)[C@@H](O)[C@H]2O)c(=O)[nH]1 is ___ 4.09
